System: SRS-A generation and release
PROCEDURE_DETAILS: Inhibitory effect on generation and release of SRS-A (sensitized guinea pig lung fragments, antigen egg white albumin)
Type: cell-based, guinea pigs (Hartley strain)
ASSAY_SETUP: Cavia porcellus; 10^-6 M test compound; number of experiments 3; lung fragments from sensitized guinea pigs
The entries below come with measured inhibition at 1 µM values attached.
Could you give me the number in %? Just the number is fine.

Some compounds with recorded inhibition at 1 µM:
CHEM_SMILES	inhibition at 1 µM (%)
CC1=C(C)C(=O)C(CCCCC#CCCCC#CC(=O)O)=C(C)C1=O	58
CC1=C(C)C(=O)C(CCCCC#CCCCC#CC=O)=C(C)C1=O	59
COC1=C(OC)C(=O)C(CCCCC#CCCCC#CC=O)=C(C)C1=O	66

Pending compound:
Briefly, inhibition at 1 µM measured for COC1=C(OC)C(=O)C(CCCCC#CCCCC#CC(=O)O)=C(C)C1=O : 61
